# target-or-test-system: microtubule-associated protein 1A/1B light chain 3B protein (human, UniProt Q9GZQ8 1-120)
# assay-summary: fluorescence polarisation
Ends that are not written are not given here.
measure-name: Kd (nM)
Write the value in nM as a bare number.

Form: binder = Fluorescein-DATYTWEHLAWP [fluorescein-labeled K1 peptide] ; Kd = 1200

Measured values drawn from paper PMC7872222 for this set.
